System: 50S ribosome
protocolNotes: SPR binding studies
Design: species or system S. aureus
appliedConditions: 4 °C, PBST pH 7.4, compound immobilised, 50S ribosome 200-3200 nM
Documented Kd (dissociation rate constant) across a set of compounds
observable: Kd (dissociation rate constant) (s⁻¹)

[
  {
    "compound": "C=C[C@]1(C)C[C@@H](OC(=O)Cn2cc(CN3CCN(c4ccc([N+](=O)[O-])cc4)CC3)nn2)[C@]2(C)[C@H](C)CC[C@]3(CCC(=O)[C@H]32)[C@@H](C)[C@@H]1O",
    "endpointValue": 0.000764
  },
  {
    "compound": "C=C[C@]1(C)C[C@@H](OC(=O)Cn2cc(CN3CCN(c4cccc(C)c4)CC3)nn2)[C@]2(C)[C@H](C)CC[C@]3(CCC(=O)[C@H]32)[C@@H](C)[C@@H]1O",
    "endpointValue": 0.0329
  },
  {
    "compound": "C=C[C@]1(C)C[C@@H](OC(=O)Cn2cc(CN3CCN(c4ccccc4[N+](=O)[O-])CC3)nn2)[C@]2(C)[C@H](C)CC[C@]3(CCC(=O)[C@H]32)[C@@H](C)[C@@H]1O",
    "endpointValue": 0.013
  },
  {
    "compound": "C=C[C@]1(C)C[C@@H](OC(=O)Cn2cc(CN3CCN(c4ccccc4C)CC3)nn2)[C@]2(C)[C@H](C)CC[C@]3(CCC(=O)[C@H]32)[C@@H](C)[C@@H]1O",
    "endpointValue": "3.93e-06"
  },
  {
    "compound": "C=C[C@]1(C)C[C@@H](OC(=O)CSCCN(CC)CC)[C@]2(C)[C@H](C)CC[C@]3(CCC(=O)[C@H]32)[C@@H](C)[C@@H]1O [Tiamulin, tiamulin, reference compound]",
    "endpointValue": "4.44e-06"
  },
  {
    "compound": "C=C[C@]1(C)C[C@@H](OC(=O)Cn2cc(CN3CCN(c4ccccc4F)CC3)nn2)[C@]2(C)[C@H](C)CC[C@]3(CCC(=O)[C@H]32)[C@@H](C)[C@@H]1O",
    "endpointValue": 0.00403
  },
  {
    "compound": "C=C[C@]1(C)C[C@@H](OC(=O)Cn2cc(CN3CCN(c4cccc([N+](=O)[O-])c4)CC3)nn2)[C@]2(C)[C@H](C)CC[C@]3(CCC(=O)[C@H]32)[C@@H](C)[C@@H]1O",
    "endpointValue": 0.00345
  }
]
